tested on: Staphylococcus aureus (Oxford); experiment: In vitro minimum inhibitory concentration, S. aureus (Oxford) (Test 3); type: cell-based; details: Staphylococcus aureus; tryptone soya broth, approximately 10^5 organisms per tube, 37° C.
endpointLabel: MIC (µg/mL)
Give the quantity in µg/mL, number only.

Solved cases (2 shown):
COC(=O)CCC(=O)OC1C(OC2C(CC=O)CC(C)C(OC3CCC(N(C)C)C(C)O3)/C=C/C=C/CC(C)OC(=O)CC(O)C2OC)OC(C)C(OC2CC(C)(O)C(O)C(C)O2)C1N(C)C (stereo not drawn) [C, 2'-methyl succinate of spiramycin I]	2.5
COC1C(O)CC(=O)OC(C)C/C=C/C=C/C(OC2CCC(N(C)C)C(C)O2)C(C)CC(CC=O)C1OC1OC(C)C(OC2CC(C)(O)C(O)C(C)O2)C(N(C)C)C1OC(=O)CCC(=O)OC(C)(C)C (stereo not drawn)	2.5

get_value(item= COC1C(O)CC(=O)OC(C)C/C=C/C=C/C(OC2CCC(N(C)C)C(C)O2)C(C)CC(CC=O)C1OC1OC(C)C(OC2CC(C)(O)C(O)C(C)O2)C(N(C)C)C1OC(=O)CCC(=O)OC(C)C (stereo not drawn) [O, 2'-isopropyl succinate of spiramycin I] , readout=MIC) returns 1.25

---

experiment: Mouse oral toxicity; conditions: in vivo
Listing of recorded LD50 at 72 h by entry.

CCOC(=O)CCCC(=O)OC1C(OC2C(CC=O)CC(C)C(OC3CCC(N(C)C)C(C)O3)/C=C/C=C/CC(C)OC(=O)CC(O)C2OC)OC(C)C(OC2CC(C)(O)C(O)C(C)O2)C1N(C)C (centres unmarked) [B, 2'-ethyl glutarate of spiramycin I]	> 1000 mg/kg

Sample CCOC(=O)CCC(=O)OC1C(OC2C(CC=O)CC(C)C(OC3CCC(N(C)C)C(C)O3)/C=C/C=C/CC(C)OC(=O)CC(O)C2OC)OC(C)C(OC2CC(C)(O)C(O)C(C)O2)C1N(C)C (centres unmarked) [A, 2'-ethyl succinate of spiramycin I] ; LD50 at 72 h observed: > 1000 mg/kg

---

system: Staphylococcus aureus (Oxford); experiment: In vitro minimum inhibitory concentration, S. aureus (Oxford) (Test 3); format: cell-based; details: Staphylococcus aureus; tryptone soya broth, approximately 10^5 organisms per tube, 37° C.
endpointLabel: MIC

COC1C(O)CC(=O)OC(C)C/C=C/C=C/C(OC2CCC(N(C)C)C(C)O2)C(C)CC(CC=O)C1OC1OC(C)C(OC2CC(C)(O)C(O)C(C)O2)C(N(C)C)C1OC(=O)CCC(=O)Oc1ccccc1 (centres unmarked) [K, 2'-phenyl succinate of spiramycin I]	2.5 µg/mL

Moving on to the next compound.
The recorded MIC for CCOC(=O)CCC(=O)OC1C(OC2C(CC=O)CC(C)C(OC3CCC(N(C)C)C(C)O3)/C=C/C=C/CC(C)OC(=O)CC(O)C2OC)OC(C)C(OC2CC(C)(O)C(O)C(C)O2)C1N(C)C (centres unmarked) [A, 2'-ethyl succinate of spiramycin I] is 1.25 µg/mL

---

test system: Staphylococcus aureus Smith; assay: Mouse treated orally, Staphylococcus aureus Smith infection (Test 1); conditions: 168 h, oral, dosed 1, 4, 24, 30 and 48 hours after infection, observed seven days, test compound, read-out: In vivo CD50 (oral)
Structures can show the parent of a compound that is named as a salt.
endpointLabel: ED50

Worked cases, answers included:
COC(=O)CCCC(=O)OC1C(OC2C(CC=O)CC(C)C(OC3CCC(N(C)C)C(C)O3)/C=C/C=C/CC(C)OC(=O)CC(O)C2OC)OC(C)C(OC2CC(C)(O)C(O)C(C)O2)C1N(C)C (stereo not drawn) [E, 2'-methyl glutarate of spiramycin I]	125 mg/kg
COC(=O)CCC(=O)OC1C(OC2C(CC=O)CC(C)C(OC3CCC(N(C)C)C(C)O3)/C=C/C=C/CC(C)OC(=O)CC(O)C2OC)OC(C)C(OC2CC(C)(O)C(O)C(C)O2)C1N(C)C (stereo not drawn) [C, 2'-methyl succinate of spiramycin I]	62 mg/kg
COC1C(O)CC(=O)OC(C)C/C=C/C=C/C(OC2CCC(N(C)C)C(C)O2)C(C)CC(CC=O)C1OC1OC(C)C(OC2CC(C)(O)C(O)C(C)O2)C(N(C)C)C1OC(=O)CCC(=O)OCCc1ccccc1 (stereo not drawn) [M]	64 mg/kg
COC(=O)/C=C/C(=O)OC1C(OC2C(CC=O)CC(C)C(OC3CCC(N(C)C)C(C)O3)/C=C/C=C/CC(C)OC(=O)CC(O)C2OC)OC(C)C(OC2CC(C)(O)C(O)C(C)O2)C1N(C)C (stereo not drawn) [F, 2'-methyl fumarate of spiramycin I]	125 mg/kg
COC1C(O)CC(=O)OC(C)C/C=C/C=C/C(OC2CCC(N(C)C)C(C)O2)C(C)CC(CC=O)C1OC1OC(C)C(OC2CC(C)(O)C(O)C(C)O2)C(N(C)C)C1OC(=O)CCC(=O)OC1CCCCC1 (stereo not drawn) [H, 2'-cyclohexyl succinate of spiramycin I]	67 mg/kg
COC(=O)CC(C)C(=O)OC1C(OC2C(CC=O)CC(C)C(OC3CCC(N(C)C)C(C)O3)/C=C/C=C/CC(C)OC(=O)CC(O)C2OC)OC(C)C(OC2CC(C)(O)C(O)C(C)O2)C1N(C)C (stereo not drawn) [Compound L]	58 mg/kg

ED50 measured on COC1C(O)CC(=O)OC(C)C/C=C/C=C/C(OC2CCC(N(C)C)C(C)O2)C(C)CC(CC=O)C1OC1OC(C)C(OC2CC(C)(O)C(O)C(C)O2)C(N(C)C)C1OC(=O)CCC(=O)OC(C)(C)C (stereo not drawn) [N] = 130 mg/kg

Just so you know, measured ED50 for COC1C(O)CC(=O)OC(C)C/C=C/C=C/C(OC2CCC(N(C)C)C(C)O2)C(C)CC(CC=O)C1OC1OC(C)C(OC2CC(C)(O)C(O)C(C)O2)C(N(C)C)C1OC(=O)CCC(=O)OC(C)C (stereo not drawn) [O, 2'-isopropyl succinate of spiramycin I] came out at 96 mg/kg

Entry CCOC(=O)CCC(=O)OC1C(OC2C(CC=O)CC(C)C(OC3CCC(N(C)C)C(C)O3)/C=C/C=C/CC(C)OC(=O)CC(O)C2OC)OC(C)C(OC2CC(C)(O)C(O)C(C)O2)C1N(C)C (stereo not drawn) [A, 2'-ethyl succinate of spiramycin I] , ED50 reported as 88 mg/kg
